# target of assay: human purified αVβ5 (Homo sapiens, UniProt P06756+P18084)
# Construct: purchased Chemicon International, Inc
# Sequence (P06756 31-889 limits assumed): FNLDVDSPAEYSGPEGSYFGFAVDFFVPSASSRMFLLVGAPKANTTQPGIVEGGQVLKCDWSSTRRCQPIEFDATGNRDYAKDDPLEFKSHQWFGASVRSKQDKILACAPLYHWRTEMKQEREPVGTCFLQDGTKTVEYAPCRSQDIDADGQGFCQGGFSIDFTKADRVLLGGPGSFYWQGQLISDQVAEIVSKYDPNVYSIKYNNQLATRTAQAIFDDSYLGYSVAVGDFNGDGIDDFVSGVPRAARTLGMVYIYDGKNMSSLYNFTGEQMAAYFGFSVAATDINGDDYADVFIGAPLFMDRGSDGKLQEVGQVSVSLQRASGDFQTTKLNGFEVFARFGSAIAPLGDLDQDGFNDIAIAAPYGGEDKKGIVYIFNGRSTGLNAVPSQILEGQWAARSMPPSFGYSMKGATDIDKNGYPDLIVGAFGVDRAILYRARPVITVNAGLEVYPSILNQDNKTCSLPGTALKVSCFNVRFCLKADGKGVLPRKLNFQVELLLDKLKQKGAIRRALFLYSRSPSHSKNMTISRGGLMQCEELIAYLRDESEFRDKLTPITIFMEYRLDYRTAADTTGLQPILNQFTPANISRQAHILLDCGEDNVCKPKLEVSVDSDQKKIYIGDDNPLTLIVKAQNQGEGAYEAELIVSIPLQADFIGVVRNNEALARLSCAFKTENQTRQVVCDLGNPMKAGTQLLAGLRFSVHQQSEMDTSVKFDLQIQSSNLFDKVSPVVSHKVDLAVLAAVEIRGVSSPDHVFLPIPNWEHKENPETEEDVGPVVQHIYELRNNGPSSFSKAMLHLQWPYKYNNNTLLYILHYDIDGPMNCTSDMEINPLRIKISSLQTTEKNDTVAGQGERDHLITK
# Sequence (P06756 891-1048 partner limits assumed): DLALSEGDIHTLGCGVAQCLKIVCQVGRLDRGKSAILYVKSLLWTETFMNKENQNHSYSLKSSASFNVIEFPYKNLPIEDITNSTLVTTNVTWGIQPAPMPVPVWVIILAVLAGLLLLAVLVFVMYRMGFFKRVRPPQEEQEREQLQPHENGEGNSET
# Sequence (P18084 24-799): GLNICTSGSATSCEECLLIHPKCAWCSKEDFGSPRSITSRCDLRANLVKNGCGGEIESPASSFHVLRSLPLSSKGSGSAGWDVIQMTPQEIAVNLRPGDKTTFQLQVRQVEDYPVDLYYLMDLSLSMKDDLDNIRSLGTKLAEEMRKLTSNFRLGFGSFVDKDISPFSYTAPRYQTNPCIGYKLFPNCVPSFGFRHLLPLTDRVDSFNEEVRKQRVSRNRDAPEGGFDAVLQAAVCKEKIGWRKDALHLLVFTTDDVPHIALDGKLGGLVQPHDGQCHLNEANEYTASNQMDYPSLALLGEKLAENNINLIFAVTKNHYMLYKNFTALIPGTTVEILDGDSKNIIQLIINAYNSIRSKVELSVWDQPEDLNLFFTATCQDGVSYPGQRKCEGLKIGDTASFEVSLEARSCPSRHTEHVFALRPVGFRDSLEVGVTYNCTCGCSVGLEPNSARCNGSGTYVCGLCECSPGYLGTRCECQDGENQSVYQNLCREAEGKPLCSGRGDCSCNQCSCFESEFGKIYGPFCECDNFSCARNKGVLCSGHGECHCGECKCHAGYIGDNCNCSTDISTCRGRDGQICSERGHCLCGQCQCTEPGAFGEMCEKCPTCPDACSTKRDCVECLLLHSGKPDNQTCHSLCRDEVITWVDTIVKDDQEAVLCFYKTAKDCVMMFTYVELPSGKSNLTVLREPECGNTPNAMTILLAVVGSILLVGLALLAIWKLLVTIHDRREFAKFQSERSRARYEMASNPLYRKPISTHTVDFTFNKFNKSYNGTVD
# procedure summary: In Vitro Solid Phase Purified αcβ5 Binding Assay (vitronectin/αVβ5)
# conditions: vitronectin binding to immobilized purified human αVβ5; mean ± spread; read-out: αvβ5 IC50
Recorded IC50 values for a group of molecules are listed next.

Some solved cases for reference:
CC(C)(C)OC(=O)CCCC1CCN(C(=O)CCc2ccc3c(n2)NCCC3)CC1 [Cpd 70]
> 1 µM
O=C(O)CC(C1CCN(C(=O)CCCc2ccc3c(n2)NCCC3)CC1)C1CNc2ccccc2C1 (single isomer, unassigned) [Cpd 5-3]
> 5 µM
CCOC(=O)CCCC1CCN(C(=O)CCc2ccc3c(n2)NCCC3)CC1 [Cpd 68]
> 1 µM

Now consider the entry below.
Which value of IC50 has been reported for COC(=O)CCCC1CCN(C(=O)CCc2ccc3c(n2)NCCC3)CC1 [Cpd 73] in the records? > 1 µM

====

Recorded IC50 values for a group of compounds are listed next.
# target of assay: GP IIb/IIIa (Homo sapiens, UniProt P05106+P08514)
# Sequence (P08514 32-887 limits assumed): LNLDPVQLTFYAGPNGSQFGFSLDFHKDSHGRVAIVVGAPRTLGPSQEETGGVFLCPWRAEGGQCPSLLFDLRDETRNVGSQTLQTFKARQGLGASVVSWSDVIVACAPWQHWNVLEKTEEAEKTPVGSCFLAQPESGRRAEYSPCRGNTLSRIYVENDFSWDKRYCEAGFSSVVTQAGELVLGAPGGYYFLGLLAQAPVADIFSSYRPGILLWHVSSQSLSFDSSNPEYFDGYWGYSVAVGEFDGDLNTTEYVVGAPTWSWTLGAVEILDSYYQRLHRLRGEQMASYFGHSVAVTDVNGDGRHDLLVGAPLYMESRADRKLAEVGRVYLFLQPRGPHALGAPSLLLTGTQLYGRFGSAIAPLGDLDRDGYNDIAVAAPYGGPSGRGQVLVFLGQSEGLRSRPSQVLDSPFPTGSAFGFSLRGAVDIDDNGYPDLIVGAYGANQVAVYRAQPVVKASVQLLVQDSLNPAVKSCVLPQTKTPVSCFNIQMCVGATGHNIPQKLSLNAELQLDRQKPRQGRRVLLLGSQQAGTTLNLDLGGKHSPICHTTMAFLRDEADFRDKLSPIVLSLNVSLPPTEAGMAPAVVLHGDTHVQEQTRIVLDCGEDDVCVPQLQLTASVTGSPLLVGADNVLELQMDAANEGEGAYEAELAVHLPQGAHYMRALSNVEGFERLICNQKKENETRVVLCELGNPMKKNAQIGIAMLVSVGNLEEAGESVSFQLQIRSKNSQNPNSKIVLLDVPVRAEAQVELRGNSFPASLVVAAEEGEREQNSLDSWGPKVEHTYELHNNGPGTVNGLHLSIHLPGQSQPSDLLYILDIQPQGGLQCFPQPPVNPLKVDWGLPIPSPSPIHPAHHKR
# Sequence (P08514 891-1039 partner limits assumed): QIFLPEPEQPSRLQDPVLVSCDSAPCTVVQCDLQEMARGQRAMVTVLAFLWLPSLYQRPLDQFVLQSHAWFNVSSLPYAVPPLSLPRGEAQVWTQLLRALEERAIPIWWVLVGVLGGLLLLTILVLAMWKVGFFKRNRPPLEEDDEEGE
# Sequence (P05106 27-788): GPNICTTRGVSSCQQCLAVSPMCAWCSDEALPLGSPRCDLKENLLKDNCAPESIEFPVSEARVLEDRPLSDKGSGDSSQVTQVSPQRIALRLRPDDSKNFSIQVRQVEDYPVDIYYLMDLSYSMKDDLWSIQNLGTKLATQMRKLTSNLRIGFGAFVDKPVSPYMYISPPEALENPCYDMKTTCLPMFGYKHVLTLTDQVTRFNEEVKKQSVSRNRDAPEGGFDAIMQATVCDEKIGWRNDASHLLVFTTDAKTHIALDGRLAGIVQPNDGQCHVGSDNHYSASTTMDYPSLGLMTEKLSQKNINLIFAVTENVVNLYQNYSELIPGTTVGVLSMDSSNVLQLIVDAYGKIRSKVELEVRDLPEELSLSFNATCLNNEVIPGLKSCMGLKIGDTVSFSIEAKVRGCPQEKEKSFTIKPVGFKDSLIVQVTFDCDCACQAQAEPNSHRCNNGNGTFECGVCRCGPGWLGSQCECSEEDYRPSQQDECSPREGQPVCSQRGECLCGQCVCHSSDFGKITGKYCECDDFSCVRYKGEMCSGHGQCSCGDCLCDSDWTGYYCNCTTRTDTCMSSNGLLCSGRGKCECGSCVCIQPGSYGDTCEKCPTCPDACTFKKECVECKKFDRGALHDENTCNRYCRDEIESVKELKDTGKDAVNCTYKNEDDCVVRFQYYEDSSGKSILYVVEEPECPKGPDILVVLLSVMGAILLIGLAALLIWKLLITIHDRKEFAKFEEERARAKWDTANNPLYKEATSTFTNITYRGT
# procedure summary: In Vitro Solid Phase Purified GP IIb/IIIa Binding Assay (biotinylated fibrinogen)
# conditions: biotinylated fibrinogen binding to immobilized purified GP IIb/IIIa; mean ± spread; read-out: αIIbβ3 IC50
# Procedure: In Vitro Solid Phase Purified GP IIb/IIIa Binding Assay The plate was covered and incubated overnight at 4° C. The GP IIb/IIIa solution was discarded and 150 μL of 5% BSA was added and incubated at RT for 1-3 h. The plate was washed extensively with modified Tyrodes buffer. Biotinylated fibrinogen (25 μL/well) at 2× final concentration was added to the wells that contain the test compounds (25 μL/well). The plate was covered and incubated at RT for 2-4 h. […]

Which value of IC50 has been reported for O=C(O)CC(CC1CCN(C(=O)CCCc2ccc3c(n2)NCCC3)CC1)c1cc(F)cc(F)c1 (stereo not shown) [Cpd 38] in the records? > 50 µM

Which value of IC50 has been reported for CC(C)(C)OC(=O)CCCC1CCN(C(=O)CCc2ccc3c(n2)NCCC3)CC1 [Cpd 70] in the records? > 50 µM

Which value of IC50 has been reported for O=C(O)CC(CC1CCN(C(=O)CCc2ccc3c(n2)NCCC3)CC1)c1ccc(F)cc1 (stereo not shown) [Cpd 33] in the records? > 50 µM

Which value of IC50 has been reported for CC1=NCC(C(CC(=O)O)CC2CCN(C(=O)CCc3ccc4c(n3)NCCC4)CC2)CN1 (stereo not shown) [Cpd 18] in the records? > 50 µM
